System tested: full length AKT E17K (Homo sapiens, UniProt P31749, E17K)
Construct: host or cells: HEK-293 (ATCC CRL-1573)
Sequence (P31749 whole entry E17K): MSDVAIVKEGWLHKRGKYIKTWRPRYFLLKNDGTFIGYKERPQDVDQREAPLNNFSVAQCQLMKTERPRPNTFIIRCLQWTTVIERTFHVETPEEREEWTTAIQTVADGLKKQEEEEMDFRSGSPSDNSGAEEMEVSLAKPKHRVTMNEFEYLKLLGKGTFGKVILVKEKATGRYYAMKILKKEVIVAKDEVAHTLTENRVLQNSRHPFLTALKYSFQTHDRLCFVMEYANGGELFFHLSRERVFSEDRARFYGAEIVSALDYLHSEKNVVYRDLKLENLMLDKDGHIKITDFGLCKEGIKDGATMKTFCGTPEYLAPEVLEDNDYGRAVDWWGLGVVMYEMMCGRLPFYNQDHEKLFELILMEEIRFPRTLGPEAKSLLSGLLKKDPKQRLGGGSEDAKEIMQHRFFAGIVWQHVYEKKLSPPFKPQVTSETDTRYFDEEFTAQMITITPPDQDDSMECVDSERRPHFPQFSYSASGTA
Assay summary: NanoBRET Target Engagement (TE) Assay
Type: cell-based
Condition: competitive tracer displacement in living cells, read-out: AKT1 E17K IC50
Readout label: IC50

Illustrative cases are given below, each with its answer.
>>> df
                                   compound  readout_label   recorded_result
0  N#Cc1cc(NC2C3CCC2CN(Cc2ccc(-n4c(-c5cccnc5N)nc5ccc(-c6ccccc6)nc54)cc2)C3)ncn1 (centres unmarked)           IC50      0.6 to 10 µM
1  N#Cc1ccnc(C(=O)N2CCN(Cc3ccc(-n4c(-c5cccnc5N)nc5cccnc54)cc3)CC2)c1           IC50      0.6 to 10 µM
2  CC(=O)Nc1cccc(-c2ccc3nc(-c4cccnc4N)n(-c4ccc(CN5CCN(c6cc(C#N)cnn6)CC5)cc4)c3n2)c1           IC50    0.06 to 0.6 µM
3  N#Cc1cc(N2CCN(Cc3ccc(-n4c(-c5cccnc5N)nc5cccnc54)cc3)CC2)ncn1           IC50    0.06 to 0.6 µM
4  N#Cc1ncnc(N2CCCC3(CCN(Cc4ccc(-n5c(-c6cccnc6N)nc6ccc(-c7ccccc7)nc65)cc4)C3)C2)n1 (centres unmarked)           IC50  0.015 to 0.06 µM
5  N#Cc1ncnc(N2CC[C@]3(CCN(Cc4ccc(-n5c(-c6cccnc6N)nc6ccc(-c7ccccc7)nc65)cc4)C3)C2)n1           IC50        < 0.015 µM

Sure, the documented IC50 for "N#Cc1cncc(C(=O)NC2CCN(Cc3ccc(-n4c(-c5cccnc5N)nc5cccnc54)cc3)CC2)c1" is 0.6 to 10 µM

For "C[C@H]1CN(Cc2ccc(-n3c(-c4cccnc4N)nc4ccc(-c5ccccc5)nc43)cc2)CCN1c1nccc(C#N)n1" the compound record lists IC50 as 0.06 to 0.6 µM

// "C[C@H]1CN(Cc2ccc(-n3c(-c4cccnc4N)nc4ccc(-c5ccccc5)nc43)cc2)C[C@H](C)N1c1cc(C#N)ncn1" : IC50 value = 0.06 to 0.6 µM

Entry under test: "N#Cc1ccc(C(=O)N2CCN(Cc3ccc(-n4c(-c5cccnc5N)nc5ccc(-c6ccccc6)nc54)cc3)CC2)nc1" . Its IC50 was 0.6 to 10 µM

Summary for this compound, "N#Cc1cccc(C(=O)N2CCN(Cc3ccc(-n4c(-c5cccnc5N)nc5cccnc54)cc3)CC2)n1" : IC50 is 0.6 to 10 µM

----------
System tested: full length AKT E17K (Homo sapiens, UniProt P31749, E17K)
Construct: host or cells: HEK-293 (ATCC CRL-1573)
Assay summary: NanoBRET Target Engagement (TE) Assay
Assay type: cell-based
Condition: competitive displacement of tracer in cells, read-out: AKT1 E17K IC50
pIC50: −log10 of the molar value.
Readout label: pIC50

>>> print(df.to_string())
                                  structure  readout_label  recorded_result
0  N#Cc1ccnc(NC2CCN(Cc3ccc(-n4c(-c5cccnc5N)nc5ccc(-c6cccc(Cl)c6)nc54)cc3)CC2)n1          pIC50     7.22 to 7.82
1  N#Cc1ccc(-c2ccc3nc(-c4cccnc4N)n(-c4ccc(CN5CCC(Nc6ccnc(C#N)n6)CC5)cc4)c3n2)nc1          pIC50     7.22 to 7.82
2  N#Cc1ccnc(NC2CCN(Cc3ccc(-n4c(-c5cccnc5N)nc5ccc(-c6ccc(F)cc6)nc54)cc3)CC2)n1          pIC50     7.22 to 7.82
3  N#Cc1nccc(NC2CCN(Cc3ccc(-n4c(-c5conc5N)nc5ccc(-c6ccc(F)cn6)nc54)cc3)CC2)n1          pIC50     6.22 to 7.22
4  CC(=O)Nc1cccc(-c2ccc3nc(-c4cccnc4N)n(-c4ccc(CN5CCC(Nc6ccnc(C#N)n6)CC5)cc4)c3n2)c1          pIC50           > 7.82
5  CS(=O)(=O)c1ccc2nc(-c3cccnc3N)n(-c3ccc(CN4CCC(Nc5ccnc(C#N)n5)CC4)cc3)c2n1          pIC50     6.22 to 7.22

Kindly note the recorded pIC50 for "COc1ccc(-c2ccc3nc(-c4cccnc4N)n(-c4ccc(CN5CCC(Nc6ccnc(C#N)n6)CC5)cc4)c3n2)nc1" , which is > 7.82

The recorded pIC50 for entry "N#Cc1nccc(NC2CCN(Cc3ccc(-n4c(-c5cccnc5N)nc5ccc(-c6cnccc6F)nc54)cc3)CC2)n1" equals > 7.82

Form field pIC50, entry "N#Cc1nccc(NC2CCN(Cc3ccc(-n4c(-c5cccnc5N)nc5ccc(-c6cccc(C(F)(F)F)c6)nc54)cc3)CC2)n1" : 7.22 to 7.82

Record "N#Cc1nccc(NC2CCN(Cc3ccc(-n4c(-c5cccnc5N)nc5ccc(-c6ccc(C7CC7)nc6)nc54)cc3)CC2)n1" , field pIC50: > 7.82

----------
IC50 by entry:
System tested: full length AKT E17K (Homo sapiens, UniProt P31749, E17K)
Construct: host or cells: HEK-293 (ATCC CRL-1573)
Assay summary: NanoBRET Target Engagement (TE) Assay
Type: cell-based
Condition: competitive displacement of tracer in cells, read-out: AKT1 E17K IC50

>>> df
                                   molecule                             system_tested  readout_label  recorded_result
0  N#Cc1nccc(NC2CCN(Cc3ccc(-n4c(-c5cccnc5N)nc5ccc(C6CCOC6)nc54)cc3)CC2)n1 (stereo not drawn)  full length AKT E17K (Homo sapiens, UniProt P31749, E17K)           IC50          < 15 nM
1  N#Cc1nccc(N2CCN(Cc3ccc(-n4c(-c5cccnc5N)nc5ccc(-c6ncccc6C#N)nc54)cc3)CC2)n1  full length AKT E17K (Homo sapiens, UniProt P31749, E17K)           IC50          < 15 nM
2  COC(=O)Nc1cccc(-c2ccc3nc(-c4cccnc4N)n(-c4ccc(CN5CCC(Nc6ccnc(C#N)n6)CC5)cc4)c3n2)c1  full length AKT E17K (Homo sapiens, UniProt P31749, E17K)           IC50          < 15 nM

Per the records, this molecule ( "N#Cc1cc(N2CCN(Cc3ccc(-n4c(-c5cccnc5N)nc5ccc(-c6cccc(Cl)c6)nc54)cc3)CC2)ncn1" ) has IC50 equal to 15 to 60 nM

Input "N#Cc1ccnc(NC2CCN(Cc3ccc(-n4c(-c5cccnc5N)nc5ccc(-c6cccc(F)c6)nc54)cc3)CC2)n1" . Output IC50: 15 to 60 nM

Entry "[2H]C([2H])([2H])n1ncc(-c2ccc3nc(-c4cccnc4N)n(-c4ccc(CN5CCC(Nc6ccnc(C#N)n6)CC5)cc4)c3n2)n1" ; IC50 = < 15 nM

----------
System tested: full length AKT E17K (Homo sapiens, UniProt P31749, E17K)
Construct: host or cells: HEK-293 (ATCC CRL-1573)
Assay summary: NanoBRET Target Engagement (TE) Assay
Type: cell-based
Condition: competitive tracer displacement in living cells, read-out: AKT1 E17K IC50
pIC50: −log10 of the molar value.
Readout label: pIC50

In [3]: df
Out[3]:
                                  structure  readout_label  recorded_result
0  N#Cc1cccnc1C(=O)N1CCN(Cc2ccc(-n3c(-c4cccnc4N)nc4cccnc43)cc2)CC1          pIC50     5.00 to 6.22
1  N#Cc1ncnc(N2C[C@H]3C[C@@H]2CN3Cc2ccc(-n3c(-c4cccnc4N)nc4ccc(-c5ccccc5)nc43)cc2)n1          pIC50           > 7.82

Please find the next compound below.
Value of measured pIC50 for the entry "N#Cc1ccnc(NCc2ccc(-n3c(-c4cccnc4N)nc4cccnc43)cc2)n1" : 5.00 to 6.22

----------
System tested: full length AKT E17K (Homo sapiens, UniProt P31749, E17K)
Construct: host or cells: HEK-293 (ATCC CRL-1573)
Assay summary: NanoBRET Target Engagement (TE) Assay
Format: cell-based
Condition: competitive displacement of tracer in cells, read-out: AKT1 E17K IC50
pIC50: −log10 of the molar value.
Readout label: pIC50

Recorded pIC50, per entry:
>>> df
                                  structure                             system_tested  readout_label  recorded_result
0  N#Cc1nccc(N2C[C@H]3CN(Cc4ccc(-n5c(-c6cccnc6N)nc6ccc(-c7ccccc7)nc65)cc4)C[C@H]3C2)n1  full length AKT E17K (Homo sapiens, UniProt P31749, E17K)          pIC50     7.22 to 7.82
1  N#Cc1nccc(NC2CCN(Cc3ccc(-n4c(-c5cccnc5N)nc5ccc(-c6cnc(F)cn6)nc54)cc3)CC2)n1  full length AKT E17K (Homo sapiens, UniProt P31749, E17K)          pIC50           > 7.82
2  N#Cc1ccnc(NC2CCN(Cc3ccc(-n4c(-c5cccnc5N)nc5ccc(C6CC6)nc54)cc3)CC2)n1  full length AKT E17K (Homo sapiens, UniProt P31749, E17K)          pIC50     7.22 to 7.82
3  N#Cc1ccnc(N2CCN(Cc3ccc(-n4c(-c5cccnc5N)nc5ccc(-c6ccc(Cl)cc6)nc54)cc3)CC2)n1  full length AKT E17K (Homo sapiens, UniProt P31749, E17K)          pIC50     6.22 to 7.22

Noted for "COc1cccnc1-c1ccc2nc(-c3cccnc3N)n(-c3ccc(CN4CCC(Nc5ccnc(C#N)n5)CC4)cc3)c2n1" : its pIC50 reads > 7.82

pIC50 recorded for this compound, "Cc1ccc(-c2ccc3nc(-c4cccnc4N)n(-c4ccc(CN5CCC(Nc6ccnc(C#N)n6)CC5)cc4)c3n2)cc1" , is > 7.82
